Please respond with reported Ki for every item in the list.
Target: human adenosine-A1 receptors (Homo sapiens)
Construct: expressed in transfected cells; host or cells: CHO cells
Sequence (P30542 1-326): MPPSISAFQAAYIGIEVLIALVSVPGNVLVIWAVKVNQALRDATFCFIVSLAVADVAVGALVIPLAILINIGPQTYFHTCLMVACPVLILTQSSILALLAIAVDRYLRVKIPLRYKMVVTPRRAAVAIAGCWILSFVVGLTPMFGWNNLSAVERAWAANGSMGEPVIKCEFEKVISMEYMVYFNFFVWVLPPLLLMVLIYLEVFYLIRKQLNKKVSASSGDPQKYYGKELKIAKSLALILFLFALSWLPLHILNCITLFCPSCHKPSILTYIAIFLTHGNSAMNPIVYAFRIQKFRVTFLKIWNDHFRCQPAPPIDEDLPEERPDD
Experiment: In vitro affinity for human adenosine-A1 receptors (radioligand [3H]DPCPX)
Assay type: binding
Conditions: human recombinant receptors expressed in CHO cells, read-out: Adenosine receptor affinity (binding) A1 pKi (converted)

## Input Given Cn1c(Br)nc2c(C(F)(F)F)nc(NCCc3ccccc3)nc21 , respond with its Ki.
## Output > 10 µM

## Input Given Cn1c(/C=C\c2ccc(C(F)(F)F)cc2)nc2c(C(F)(F)F)nc(NCCc3ccccc3)nc21 , respond with its Ki.
## Output > 10 µM

## Input Given Cn1c(NC2CCCC2)nc2c(C(F)(F)F)nc(NCCc3ccccc3)nc21 , respond with its Ki.
## Output 3.16 µM

## Input Given Cn1c(N2CCCCC2)nc2c(C(F)(F)F)nc(NCCc3ccccc3)nc21 , respond with its Ki.
## Output > 10 µM

## Input Given OC[C@H]1O[C@@H](n2cnc3c(C(F)(F)F)nc(N4CCC(O)CC4)nc32)[C@H](O)[C@@H]1O , respond with its Ki.
## Output > 10 µM

## Input Given Cn1c(I)nc2c(C(F)(F)F)nc(NCCc3ccccc3)nc21 , respond with its Ki.
## Output > 10 µM

## Input Given CC(C)(C)OC(=O)OCn1cnc2c(C(F)(F)F)nc(NCc3ccccc3)nc21 , respond with its Ki.
## Output 2.51 µM

## Input Given OC[C@H]1O[C@@H](n2cnc3c(C(F)(F)F)nc(OCCc4ccccc4)nc32)[C@H](O)[C@@H]1O , respond with its Ki.
## Output 1.58 µM

## Input Given Cn1c(/C=C/c2ccccc2)nc2c(C(F)(F)F)nc(NCCc3ccccc3)nc21 , respond with its Ki.
## Output > 10 µM

## Input Given OC[C@H]1O[C@@H](n2cnc3c(C(F)(F)F)nc(NCc4ccccc4)nc32)[C@H](O)[C@@H]1O , respond with its Ki.
## Output 7.94 µM

## Input Given Cn1c(-c2ccccc2)nc2c(C(F)(F)F)nc(NCCc3ccccc3)nc21 , respond with its Ki.
## Output > 10 µM

## Input Given Cn1c(N2CCOCC2)nc2c(C(F)(F)F)nc(NCCc3ccccc3)nc21 , respond with its Ki.
## Output > 10 µM

## Input Given Cn1c(N2CCCC2)nc2c(C(F)(F)F)nc(NCCc3ccccc3)nc21 , respond with its Ki.
## Output > 10 µM

## Input Given Cn1c(/C=C\c2ccccc2)nc2c(C(F)(F)F)nc(NCCc3ccccc3)nc21 , respond with its Ki.
## Output > 10 µM

## Input Given Cn1c(-c2cccc(F)c2)nc2c(C(F)(F)F)nc(NCCc3ccccc3)nc21 , respond with its Ki.
## Output 7.94 µM

## Input Given Cn1c(C#Cc2ccccc2)nc2c(C(F)(F)F)nc(NCCc3ccccc3)nc21 , respond with its Ki.
## Output > 10 µM

## Input Given Cn1cnc2c(C(F)(F)F)nc([N+](=O)[O-])nc21 , respond with its Ki.
## Output > 10 µM

----------
target: human adenosine-A2A receptors (Homo sapiens); construct: expressed in transfected cells; host or cells: HEK-293 cells; assay: In vitro affinity for human adenosine-A2A receptors (radioligand [3H]CGS 21680); assay type: binding; conditions: human recombinant receptors expressed in HEK-293 cells, read-out: Adenosine receptor affinity (binding) A2A pKi (converted)
Sequence (P29274 whole entry): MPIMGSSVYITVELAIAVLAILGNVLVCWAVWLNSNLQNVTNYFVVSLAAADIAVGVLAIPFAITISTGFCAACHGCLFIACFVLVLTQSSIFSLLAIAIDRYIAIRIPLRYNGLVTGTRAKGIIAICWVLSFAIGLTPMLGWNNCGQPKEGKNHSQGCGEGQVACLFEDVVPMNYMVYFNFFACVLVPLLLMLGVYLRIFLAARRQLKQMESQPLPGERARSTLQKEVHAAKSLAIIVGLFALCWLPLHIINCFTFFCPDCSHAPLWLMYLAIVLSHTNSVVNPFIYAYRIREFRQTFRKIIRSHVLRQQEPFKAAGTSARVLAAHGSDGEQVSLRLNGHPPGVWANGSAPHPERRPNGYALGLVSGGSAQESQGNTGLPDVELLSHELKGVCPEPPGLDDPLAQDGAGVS
Please respond with reported Ki for every item in the list.

## Input Given Cn1c(I)nc2c(C(F)(F)F)nc(NCCc3ccccc3)nc21 [Compound 12] , respond with its Ki.
## Output > 10 µM

## Input Given Cn1c(/C=C/c2ccc(C(F)(F)F)cc2)nc2c(C(F)(F)F)nc(NCCc3ccccc3)nc21 [Compound 24] , respond with its Ki.
## Output > 10 µM

## Input Given Cn1c(-c2cccs2)nc2c(C(F)(F)F)nc(NCCc3ccccc3)nc21 [Compound 14] , respond with its Ki.
## Output > 10 µM

## Input Given Cn1cnc2c(C(F)(F)F)nc(NCCc3ccccc3)nc21 [Compound 10] , respond with its Ki.
## Output 15.8 µM

## Input Given Cn1c(Br)nc2c(C(F)(F)F)nc(NCCc3ccccc3)nc21 [Compound 11] , respond with its Ki.
## Output > 10 µM

----------
Target: human Adenosine A3 receptor (Homo sapiens, UniProt P0DMS8)
Sequence (P0DMS8 1-318): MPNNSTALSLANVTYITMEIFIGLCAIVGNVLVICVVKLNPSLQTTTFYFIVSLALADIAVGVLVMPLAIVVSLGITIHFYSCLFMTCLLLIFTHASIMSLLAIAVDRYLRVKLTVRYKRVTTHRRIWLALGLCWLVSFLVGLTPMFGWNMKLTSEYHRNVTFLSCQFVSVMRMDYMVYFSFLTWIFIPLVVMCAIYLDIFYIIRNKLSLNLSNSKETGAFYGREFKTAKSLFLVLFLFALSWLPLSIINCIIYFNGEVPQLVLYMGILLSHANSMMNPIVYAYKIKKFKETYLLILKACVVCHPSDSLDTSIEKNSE
Test: In vitro affinity for human adenosine-A3 receptors (radioligand [125I]-AB-MECA)
Format: binding
Parameters: expressed in transfected cells; host or cells: HEK 293 cells (membrane preparations)
Conditions: membranes of HEK 293 cells stably expressing human A3, [125I]-AB-MECA, 22° C., 90 minutes; read-out: Adenosine receptor affinity (binding) A3 pKi (converted)
measured_quantity: Ki (nM)
# value in nM; strip the unit string

## Input Given Cn1cnc2c(C(F)(F)F)nc(NCCc3ccccc3)nc21 , respond with its Ki.
## Output 1580

## Input Given Cn1cnc2c(C(F)(F)F)nc([N+](=O)[O-])nc21 , respond with its Ki.
## Output 3980

## Input Given Cn1c(/C=C/c2ccccc2)nc2c(C(F)(F)F)nc(NCCc3ccccc3)nc21 , respond with its Ki.
## Output 3980

## Input Given Cn1c(N2CCOCC2)nc2c(C(F)(F)F)nc(NCCc3ccccc3)nc21 , respond with its Ki.
## Output 1580

## Input Given Cn1c(-c2cccc(F)c2)nc2c(C(F)(F)F)nc(NCCc3ccccc3)nc21 , respond with its Ki.
## Output 1000

## Input Given Cn1cnc2c(C(F)(F)F)nc(NCc3ccccc3)nc21 , respond with its Ki.
## Output 3160

## Input Given FC(F)(F)c1nc(NCCc2ccccc2)nc2nc[nH]c12 , respond with its Ki.
## Output 12.6

## Input Given OC[C@H]1O[C@@H](n2cnc3c(C(F)(F)F)nc(NCc4ccccc4)nc32)[C@H](O)[C@@H]1O , respond with its Ki.
## Output 316

## Input Given CC(C)(C)OC(=O)OCn1cnc2c(C(F)(F)F)nc(NCc3ccccc3)nc21 , respond with its Ki.
## Output 79.4

## Input Given Cn1c(Br)nc2c(C(F)(F)F)nc(NCCc3ccccc3)nc21 , respond with its Ki.
## Output 1000

## Input Given CC(C)(C)OC(=O)OCn1cnc2c(C(F)(F)F)nc(NCCc3ccccc3)nc21 , respond with its Ki.
## Output 25.1

## Input Given Cn1c(N2CCCC2)nc2c(C(F)(F)F)nc(NCCc3ccccc3)nc21 , respond with its Ki.
## Output 3160

## Input Given Cn1c(/C=C/c2ccc(C(F)(F)F)cc2)nc2c(C(F)(F)F)nc(NCCc3ccccc3)nc21 , respond with its Ki.
## Output 3980

## Input Given Cn1c(N2CCCCC2)nc2c(C(F)(F)F)nc(NCCc3ccccc3)nc21 , respond with its Ki.
## Output 3980

## Input Given Cn1c(I)nc2c(C(F)(F)F)nc(NCCc3ccccc3)nc21 , respond with its Ki.
## Output 2510

## Input Given OC[C@H]1O[C@@H](n2cnc3c(C(F)(F)F)nc(OCCc4ccccc4)nc32)[C@H](O)[C@@H]1O , respond with its Ki.
## Output 158

## Input Given FC(F)(F)c1nc(NCc2ccccc2)nc2nc[nH]c12 , respond with its Ki.
## Output 20

## Input Given Cn1c(-c2ccccc2)nc2c(C(F)(F)F)nc(NCCc3ccccc3)nc21 , respond with its Ki.
## Output 2000

## Input Given Cn1c(-c2ccco2)nc2c(C(F)(F)F)nc(NCCc3ccccc3)nc21 , respond with its Ki.
## Output 1260

## Input Given OC[C@H]1O[C@@H](n2cnc3c(C(F)(F)F)nc(NCCc4ccc(O)cc4)nc32)[C@H](O)[C@@H]1O , respond with its Ki.
## Output 10

## Input Given Cn1c(C#Cc2ccccc2)nc2c(C(F)(F)F)nc(NCCc3ccccc3)nc21 , respond with its Ki.
## Output 501

## Input Given Cn1c(NC2CCCC2)nc2c(C(F)(F)F)nc(NCCc3ccccc3)nc21 , respond with its Ki.
## Output 631

## Input Given OC[C@H]1O[C@@H](n2cnc3c(C(F)(F)F)nc(N4CCC(O)CC4)nc32)[C@H](O)[C@@H]1O , respond with its Ki.
## Output 15800

## Input Given Cn1c(/C=C\c2ccccc2)nc2c(C(F)(F)F)nc(NCCc3ccccc3)nc21 , respond with its Ki.
## Output 2000

## Input Given Cn1c(/C=C\c2ccc(C(F)(F)F)cc2)nc2c(C(F)(F)F)nc(NCCc3ccccc3)nc21 , respond with its Ki.
## Output 5010

## Input Given Cn1c(-c2cccs2)nc2c(C(F)(F)F)nc(NCCc3ccccc3)nc21 , respond with its Ki.
## Output 1580
